B1: glmS ribozyme (parent)
chain: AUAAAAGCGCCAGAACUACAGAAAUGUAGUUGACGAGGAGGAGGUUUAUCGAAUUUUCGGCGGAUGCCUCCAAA

Variants of: B1
Experiment: self-cleavage kobs at 10000 uM GlcN6P; higher = faster cleavage; RNA array
Settings: with glucosamine-6-phosphate
Variants at the floor of the assay were thinned out.
reportedEndpoint: self-cleavage kobs at 10000 uM GlcN6P

Some variants with recorded self-cleavage kobs at 10000 uM GlcN6P:
AUAAAAGCGCCAGAACUACAGAAAUGUAGUUGACGAGGAGGAGGUUCAUCGAAUUUUCGGGGGAUGCCUCCAAA [U47C C61G] : < 1e-05 s⁻¹
AUAAAAGCGCCAGAACUACAGAAAUGUAGUUGACCAGGAGGAGGUUUAUCGAAUUUUCGGCGGAUACCUCCAAA [G35C G66A] : < 1e-05 s⁻¹
AUAAAUGCGCCAGAACUACAGAAAUGUAGUUGACGAGGUGGAGGUUUAUCGAAAUUUCGUCGGAUGCCUCCAAA [A6U A39U U54A G60U] : < 1e-05 s⁻¹
AUAAAAGCGCCAAAACUACAGAAAUGUAGUUGACGACGAGGAGGUUUAUCGAAUUUUCGGCGGAUGCCUCCAAA [G13A G37C] : < 1e-05 s⁻¹
AUAAAAGCGCCAGAACUACAGAAAUGUACUUGAUGAGGAGGAGGUUUAUCGAAUUUUCGGCGGAUGCCUCCAAA [G29C C34U] : < 1e-05 s⁻¹

// moving on: another record for self-cleavage kobs at 10000 uM GlcN6P
stdin: Please give the documented self-cleavage kobs at 10000 uM GlcN6P of AUAAAAGCGCCAGAACUACAGAAAUGUAGUUGACGAGGAUGAUGUUUAUCGAAUUUUCGGCAGAUGCCUCCAAA [G40U G43U G62A]
stdout: < 1e-05 s⁻¹
